# procedureText: Molar enthalpy of transition or fusion
# setupConditions: Crystal; DSC

- compound: "c1cnc2c(c1)ccc1ncccc12 [1,5-diazaphenanthrene]"
  Molar enthalpy of transition or fusion, kcal/mol: 4.35
- compound: "c1cnc2ccc3ncccc3c2c1 [4,7-phenanthroline]"
  Molar enthalpy of transition or fusion, kcal/mol: 5.21
- compound: "c1ccc(-c2ccncn2)cc1 [4-phenylpyrimidine]"
  Molar enthalpy of transition or fusion, kcal/mol: 4.49
- compound: "c1ccc(-c2ccncc2)nc1 [2,4'-bipyridine]"
  Molar enthalpy of transition or fusion, kcal/mol: 4.16
- compound: "c1cc(-c2ccncc2)ccn1 [γ,γ'-bipyridyl]"
  Molar enthalpy of transition or fusion, kcal/mol: 3.85

###

# setupConditions: Crystal; DTA
Listing of entries alongside the reported Normal melting temperature.

- compoundStructureString: "c1cnc2ccc3ncccc3c2c1"
  unitInfo: "°C"
  Normal melting temperature: 172.4
- compoundStructureString: "c1cc(-c2ccncc2)ccn1"
  unitInfo: "°C"
  Normal melting temperature: 104.4
- compoundStructureString: "c1ccc(-c2ccncn2)cc1"
  unitInfo: "°C"
  Normal melting temperature: 61.0
- compoundStructureString: "c1ccc(-c2ccncc2)nc1"
  unitInfo: "°C"
  Normal melting temperature: 59.7
- compoundStructureString: "c1cnc2c(c1)ccc1ncccc12"
  unitInfo: "°C"
  Normal melting temperature: 77.2

Values from the NIST ThermoML archive (doi:10.1021/je900034d)
